target: T1, cTnI quality control product recombinant protein (human, UniProt P19429 1-210, limits assumed); test: capture ELISA, antibody 1000.000 ng/ml, cTnI 0.15 ug/ml
T1 construct: the assay paragraphs only say cTnI; also called cardiac troponin I; cTnI antigen
T1 sequence (P19429 whole entry): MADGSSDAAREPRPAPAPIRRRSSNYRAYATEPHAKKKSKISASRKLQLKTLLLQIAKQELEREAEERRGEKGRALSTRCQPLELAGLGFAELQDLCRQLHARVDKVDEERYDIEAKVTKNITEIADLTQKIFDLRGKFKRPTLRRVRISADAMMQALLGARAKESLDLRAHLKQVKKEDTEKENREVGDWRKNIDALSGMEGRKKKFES
Measured quantity: OD 450 nm (OD)
Report as a plain number; the unit OD is understood.

{"columns": ["Binder", "Measured quantity", "Reading unit", "Observed"],
 "data": [
  ["Mutation 4 (antibody, V domains shown, other CDR sites as WT) VH: QVQLQQSGTELAKPGASVKFSCKASNYTFSTYWMYWIKQRPGQGLEWIGYLNPSSGHTKYNQRFKDKATLTADKSSSTAYMQLNSLTSEDSAVYYCARKYFGPFNMDYWGQGTSVTVSS VL: EIFLTQSPAIMSASPGEKVTMTCSASTTVSYEHWYQQKSGTSPKRWLYDQSKIASGIPVRFSGSGSGTSYSLTISSMEAEDAATYYCQVWSTQPYTFGGGTKLEIKR", "OD 450 nm", "OD", 1.28],
  ["Mutation 1 (antibody, V domains shown, other CDR sites as WT) VH: QVQLQQSGTELAKPGASVKFSCKASGYTFSTYWMYWIKQRPGQGLEWIGYLNPSSGHTDYNQRFKDKATLTADKSSSTAYMQLNSLTSEDSAVYYCARKYFGPFGMDYWGQGTSVTVSS VL: EIFLTQSPAIMSASPGEKVTMTCSASTTVSYVHWYQQKSGTSPKRWLYDTSKIASGIPVRFSGSGSGTSYSLTISSMEAEDAATYYCQQWSTQPYTFGGGTKLEIKR", "OD 450 nm", "OD", 2.34]
]}

If you can, please state the reported OD 450 nm value of Mutation 2 (antibody, V domains shown, other CDR sites as WT) VH: QVQLQQSGTELAKPGASVKFSCKASLYTFSTYWMYWIKQRPGQGLEWIGYLNPSSGHTEYNQRFKDKATLTADKSSSTAYMQLNSLTSEDSAVYYCARKYFGPFIMDYWGQGTSVTVSS VL: EIFLTQSPAIMSASPGEKVTMTCSASTTVSYAHWYQQKSGTSPKRWLYDTSKIASGIPVRFSGSGSGTSYSLTISSMEAEDAATYYCQVWSTQPYTFGGGTKLEIKR .
2.33
